test system: K-562 leukemia; assay: NCI-60 one-dose screen, 48 h (100 = growth as untreated, 0 = no growth, -100 = all killed); settings: 10 µM unless noted
Compounds without any hit were thinned out: in the full panel of roughly 83,000, 20% have a hit.
RECORDED_METRIC: growth (%)
Kindly provide the numeric value in % only, without the unit symbol.

Record excerpt, results attached:
INSERT INTO measurements (smi, recorded_metric, unit_info, numeric_result) VALUES
  ('CC(=O)/C(N=Nc1ccc2oc(=O)ccc2c1)=C(\C)O', 'growth', '%', 9.96),
  ('C(=N\Nc1nc(N/N=C/c2ccc3c(c2)OCO3)nc(N2CCCCC2)n1)/c1ccc2c(c1)OCO2', 'growth', '%', 41.1);

Okay, next one:
# compound `Cc1ccc2c(n1)C(=O)C(Cl)=C(Nc1ccc(C)c(C)c1)C2=O` ; its growth = 4.14
